# target.entity: T1, human amylin-3(a) receptor (human, UniProt P30988 25-474; O60896 24-148)
# T1 sequence (looked up) 1: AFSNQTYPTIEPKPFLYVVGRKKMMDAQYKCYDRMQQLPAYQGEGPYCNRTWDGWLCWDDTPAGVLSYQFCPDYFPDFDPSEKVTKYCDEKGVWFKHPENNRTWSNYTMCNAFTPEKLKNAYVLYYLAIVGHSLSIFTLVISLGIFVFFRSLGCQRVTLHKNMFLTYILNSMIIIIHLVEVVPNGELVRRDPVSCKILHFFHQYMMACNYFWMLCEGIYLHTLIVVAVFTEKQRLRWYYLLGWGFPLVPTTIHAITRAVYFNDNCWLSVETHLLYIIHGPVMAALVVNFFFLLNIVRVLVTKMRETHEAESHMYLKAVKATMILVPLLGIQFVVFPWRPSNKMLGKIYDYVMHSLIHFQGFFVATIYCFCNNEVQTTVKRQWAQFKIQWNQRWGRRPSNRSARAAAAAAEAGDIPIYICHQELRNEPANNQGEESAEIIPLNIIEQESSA
# T1 sequence (looked up) 2: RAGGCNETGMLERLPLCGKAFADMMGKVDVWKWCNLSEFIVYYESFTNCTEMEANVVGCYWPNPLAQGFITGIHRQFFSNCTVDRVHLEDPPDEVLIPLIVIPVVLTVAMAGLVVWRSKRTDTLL
# test.details: cell-based or functional assay
Numbered stars: 1 amine (or outer) side, 2 acyl side, 3 side chain; on linkers, the order of the positions; unused ones are H or OH. Square brackets hold non-standard residues; d marks the D form. Side chains are listed from the residue outwards. * marks the point of attachment. C18 diacid = O=C(O)CCCCCCCCCCCCCCCCC(=O)*; γGlu = O=C(O)[C@H](CCC(=O)[*:2])N[*:1]; Chem. 28 = not defined here; AEEA = NCCOCCOCC(=O)O; Aib = CC(C)(N)C(=O)O
Catalogue of hAMYR3 Potency, 1% HSA, EC50 [pM] readings, one per entry.
endpoint.name: hAMYR3 Potency, 1% HSA, EC50 [pM] (pM)

binder: Compound 75 (peptide) peptide: H[Aib]HGTFTSDYSILLEEQAAREFIEWLLAGGPSGGEASHLSTAQTQRLSAELHK([AEEA-AEEA-γGlu-C18 diacid])LATLPRTETGSGSP-NH2
endpoint.name: hAMYR3 Potency, 1% HSA, EC50 [pM]
measured.result: 110

binder: Compound 112 (peptide) peptide: H[Aib]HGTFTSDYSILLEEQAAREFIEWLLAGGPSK([γGlu-C18 diacid])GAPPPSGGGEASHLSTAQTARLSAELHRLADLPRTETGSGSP-NH2
endpoint.name: hAMYR3 Potency, 1% HSA, EC50 [pM]
measured.result: 269

binder: Compound 113 (peptide) peptide: Y[Aib]EGTFTSDYSILLEEQAAREFIEWLLAGGPSSGAGQAPGQAPGASHLSTAQTARLSAELHK([AEEA-AEEA-γGlu-C18 diacid])LATLPRTETGSGSP-NH2
endpoint.name: hAMYR3 Potency, 1% HSA, EC50 [pM]
measured.result: 136

binder: Compound 101 (reading uncertain) peptide: H[Aib]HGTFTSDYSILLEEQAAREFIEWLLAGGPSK(Chem. 28)GAPPPSGGGEASHLSTAQTARLSAELHQLATLPRTETGSGSP-NH2
endpoint.name: hAMYR3 Potency, 1% HSA, EC50 [pM]
measured.result: 95.5
